- Assay system: kallikrein (Homo sapiens (Human), UniProt P03952)
- Sequence (P03952 20-638): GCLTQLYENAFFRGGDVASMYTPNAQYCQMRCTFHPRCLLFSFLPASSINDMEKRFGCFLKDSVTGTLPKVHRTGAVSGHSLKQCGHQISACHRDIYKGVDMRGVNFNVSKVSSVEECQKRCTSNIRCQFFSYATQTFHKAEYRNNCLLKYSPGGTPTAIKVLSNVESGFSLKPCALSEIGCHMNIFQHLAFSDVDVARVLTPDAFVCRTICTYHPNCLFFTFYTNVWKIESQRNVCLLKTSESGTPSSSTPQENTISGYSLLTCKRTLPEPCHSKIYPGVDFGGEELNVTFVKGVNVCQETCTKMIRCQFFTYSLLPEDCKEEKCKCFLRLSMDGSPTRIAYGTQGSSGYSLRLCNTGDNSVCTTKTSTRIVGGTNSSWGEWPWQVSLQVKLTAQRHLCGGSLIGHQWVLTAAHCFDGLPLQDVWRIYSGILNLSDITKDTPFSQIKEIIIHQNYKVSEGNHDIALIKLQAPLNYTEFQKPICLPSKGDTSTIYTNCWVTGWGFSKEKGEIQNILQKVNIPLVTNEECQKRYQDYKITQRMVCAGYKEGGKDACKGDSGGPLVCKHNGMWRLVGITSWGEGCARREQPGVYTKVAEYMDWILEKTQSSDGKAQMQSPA
- Assay protocol: In vitro cellular assay (contact assay): kallikrein activity in ellagic acid-activated human plasma, substrate Z-FR-2-AMC
- Type: biochemical
- Condition details: human plasma activated with ellagic acid, Z-FR-2-AMC substrate, 37° C.; read-out: Contact Assay EC50
Measured metric: EC50

// known answers, use as guide
Query smiles: Cc1cnc2c(C(N)=O)cc(Cc3cc(C(=O)NCc4ccc5c(N)nccc5c4)ccn3)cc2c1
EC50: < 100 nM
//
Query smiles: Cc1cnc2c(C(N)=O)cc(Cc3cc(C(=O)NCc4c(C)cc(N)nc4C)ccn3)cc2c1
EC50: < 100 nM
//
Query smiles: Cc1cnc2c(S(C)(=O)=O)cc(Cc3cc(C(=O)NCc4cc5c(Cl)c[nH]c5cc4F)ccn3)cc2c1
EC50: < 100 nM

The recorded EC50 for Cc1cnc2c(S(C)(=O)=O)cc(Cc3cc(C(=O)NCc4cnc5[nH]cc(Cl)c5c4)ccn3)cc2c1 is < 100 nM

The recorded EC50 for Cc1ccc2ncc(Cc3cc(C(=O)NCc4cc5c(Cl)c[nH]c5cc4F)ccn3)cc2c1 is 100 to 1000 nM

The recorded EC50 for O=C(NCc1cc2c(Cl)c[nH]c2cc1F)c1ccnc(Cc2ccc3ncc(Cl)cc3c2)c1 is 100 to 1000 nM

The recorded EC50 for Cc1nc(N)ccc1CNC(=O)c1ccnc(Cc2cc(F)c3ncc(Cl)cc3c2)c1 is < 100 nM

The recorded EC50 for Cc1cnc2c(C(N)=O)cc(Cc3cc(C(=O)NCc4cc5c(Cl)c[nH]c5cc4F)ccn3)cc2c1 is < 100 nM

The recorded EC50 for NC(=O)c1cc(Cc2cc(C(=O)NCc3ccc4c(N)nccc4c3)ccn2)cc2cc(Cl)cnc12 is < 100 nM

====

- Assay system: human Plasma Kallikrein (Homo sapiens (Human))
- Sequence (P03952 20-638): as above
- Assay protocol: In vitro enzyme inhibition of human plasma kallikrein (PFR-AMC cleavage)
- Type: biochemical
- Condition details: human plasma kallikrein, Pro-Phe-Arg-AMC substrate, 37° C.; read-out: hPK IC50
Measured metric: IC50

// known answers, use as guide
Query smiles: Cc1ccc2ncc(Cc3cc(C(=O)NCc4cc5c(Cl)c[nH]c5cc4F)ccn3)cc2c1
IC50: < 100 nM
//
Query smiles: Cc1cnc2c(S(C)(=O)=O)cc(Cc3cc(C(=O)NCc4n[nH]c5ccc(Cl)cc45)ccn3)cc2c1
IC50: < 100 nM
//
Query smiles: Cc1ccc2ccc(Cc3cc(C(=O)NCc4c(C)cc(N)nc4C)ccn3)cc2n1
IC50: 100 to 1000 nM

// IC50 (human Plasma Kallikrein (Homo sapiens (Human))) for Cc1nc(N)ccc1CNC(=O)c1ccnc(Cc2cnc3ccc(F)cc3c2)c1 = < 100 nM

// IC50 (human Plasma Kallikrein (Homo sapiens (Human))) for Cc1nc(N(C)C)ccc1CNC(=O)c1ccnc(Cc2ccc3ncc(Cl)cc3c2)c1 = > 10000 nM

// IC50 (human Plasma Kallikrein (Homo sapiens (Human))) for Cc1cnc2c(S(C)(=O)=O)cc(Cc3cc(C(=O)NCc4ccc5c(N)nccc5c4)ccn3)cc2c1 = < 100 nM

// IC50 (human Plasma Kallikrein (Homo sapiens (Human))) for COC(=O)c1cc(Cc2cc(C(=O)NCc3ccc(N)nc3C)ccn2)cc2cc(Cl)cnc12 = < 100 nM
